The measured values listed here are drawn from PubChem BioAssay AID1159580.

Measured normalized growth of individual entries
procedureText: chemical genetic growth profiling, strain panel (AID 1159580);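 further: tested at 20 µM; growth read once vehicle control cultures reached saturation at 30 °C; 1 = growth at the plate median or of vehicle wells; lower values mean less growth of the strain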
conditionDescription: S. cerevisiae deletion strains, growth OD, locus YOR144C, strain elg1, hits give low values
In all, about 5,500 compounds went through this assay and about 2,000 (36%) were called active. Roughly 18% stayed inconclusive and do not appear here. This is one part of the list.
In your answer, state the number alone without any accompanying words.

Asked: Which normalized growth is reported for this compound? COC[C@]12CN(C=O)C3[C@@H]4[C@H](OC)C1[C@]3(C1CC3(O)C(OC)C(O)C4(OC(C)=O)C1C3OC(=O)c1ccccc1)[C@@H](OC)C[C@H]2O (some centres not stated)
Given back: 1.01

Asked: What measured normalized growth goes with CC(=O)O[C@@H]1CC2C(C)(C)[C@H](O)CC[C@]2(C)C2CC[C@@]3(C)[C@H](c4ccoc4)OC(=O)[C@H]4O[C@]43[C@@]21C (some centres not stated) ?
Given back: 1.01

Asked: Look at this compound and give its reported normalized growth. N[C@@H](C(=O)O)[C@@H](O)[C@H](O)[C@H](O)CO
Given back: 1.01

Asked: What normalized growth value was documented for this compound, CC(=O)O[C@@H]1CC2C(C)(C)C(=O)C3OC3[C@]2(C)C2CC[C@@]3(C)[C@H](c4ccoc4)OC(=O)C4OC43[C@@]21C (some centres not stated) ?
Given back: 1.02

Asked: I would be grateful if you could share the reported normalized growth for CC(C)c1nc(N(C)S(C)(=O)=O)nc(-c2ccc(F)cc2)c1/C=C/[C@@H](O)C[C@@H](O)CC(=O)O .
Given back: 1

Asked: Fill in: normalized growth of CC1(C)C(=O)[C@@H]2O[C@@H]2[C@@]2(C)C1C[C@@H](O)[C@]1(C)C2CC[C@@]2(C)[C@H](c3ccoc3)OC(=O)C3OC321 (some centres not stated) is ___
Given back: 0.985

Asked: Given the compound COC1C=CC23c4cc5c(cc4CN(CC2O)[C@@H]3C1)OCO5 (some centres not stated) , what is its reported normalized growth?
Given back: 0.995

Asked: Return reported normalized growth; argument: Clc1ccc(COC(Cn2ccnc2)c2ccc(Cl)cc2Cl)cc1 (configuration not stated)
Given back: 0.0562

Asked: Which normalized growth is reported for this compound? O=c1[nH]c(=O)n(C2C[C@H](O)[C@@H](CO)O2)cc1C(F)(F)F (some centres not stated)
Given back: 0.97

Asked: # query: normalized growth of entry CC(=O)OC1CC(OC(C)=O)C2(C)C(CC(OC(C)=O)C3(C)C2CCC2(C)C(c4ccoc4)OC(=O)C4OC423)C1(C)C (configuration not stated)
Given back: 0.998

Asked: Requested field: normalized growth. Item: COC(=O)[C@@H]1OC(=O)C2OC23[C@@]1(C)CCC1[C@]2(C)C(C[C@@H](O)[C@]13C)C(C)(C)[C@H](OC(C)=O)C[C@@H]2OC(C)=O (some centres not stated)
Given back: 1.01

Asked: Reported normalized growth, compound NCC[C@@H](O)C(=O)N[C@@H]1C[C@H](N)[C@@H](O[C@H]2O[C@H](CN)[C@@H](O)[C@H](O)[C@H]2O)[C@H](O)[C@H]1O[C@H]1O[C@H](CO)[C@@H](O)[C@H](N)C1O (some centres not stated) : ____
Given back: 1.02
